Measured protein stability index, listed per entry.
Test system: Saccharomyces cerevisiae
assay.procedure: protein stability index of tFT-peptide fusion (C-terminal peptide) (PSI (0-1 scale)); higher = more stable (slower turnover)
settings: genetic background: cdc34-1; temperature: 37 C
endpoint.label: protein stability index

>>> observed_value("YILLRWVNLSCL")
0.524
>>> observed_value("SSCLPAPPPLPL")
0.649
>>> observed_value("PFLCLPFLLVSR")
0.38
>>> observed_value("RLILAIVVSGGL")
0.41
>>> observed_value("VDGVSFFVVLLC")
0.406
>>> observed_value("PGRHSVRFVFVC")
0.349
>>> observed_value("FFSPFFFFLFRL")
0.306
>>> observed_value("FLLFSFFFFFFF")
0.445
>>> observed_value("GCGFSFFHIVVL")
0.111
>>> observed_value("KWGRFQQVMVIN")
0.558
>>> observed_value("GLVVWWLSGWLW")
0.249
>>> observed_value("KKKEIIKIIKIN")
0.311
>>> observed_value("GIFVWWFWGCCG")
0.503
>>> observed_value("FLCLFFLAVIKL")
0.241
>>> observed_value("VVFSLLLWLFIS")
0.256
>>> observed_value("FSVLRLVIVSLL")
0.227
>>> observed_value("SPPSFPPLLLLS")
0.668
>>> observed_value("LEVHGSCIFICV")
0.542
>>> observed_value("PFFCFLLFCFSL")
0.477

----------
Tested on: Saccharomyces cerevisiae
assay.procedure: protein stability index of tFT-peptide fusion (C-terminal peptide) (PSI (0-1 scale)); higher = more stable (slower turnover)
settings: genetic background: wild type; temperature: 30 C
endpoint.label: protein stability index

>>> observed_value("DIHSSQVPSMFA")
0.68
>>> observed_value("PNPPHPPPLPPA")
0.595
>>> observed_value("EVASMSCPVFLF")
0.652
>>> observed_value("YVQFISFAGTRP")
0.724
>>> observed_value("KTHKKRYRKGNT")
0.725
>>> observed_value("ALWARSGRVILI")
0.674
>>> observed_value("DQPLWIGVLAYC")
0.455
>>> observed_value("LSRGPYRPHVNP")
0.69
>>> observed_value("PRPLFVHTSSTF")
0.71
>>> observed_value("TWPSGRASGHVG")
0.702
>>> observed_value("SIIIPATCEYLV")
0.603
>>> observed_value("KSKKDQKKNHKK")
0.712
>>> observed_value("PPFTRLPPPLSS")
0.741
>>> observed_value("RGGGGRGGSEGS")
0.686
>>> observed_value("QKKKPEKKAKRA")
0.721
>>> observed_value("VFFHFFVCWRFV")
0.121
>>> observed_value("TTPTPPPALPLP")
0.69
>>> observed_value("LRGGSRWVSGGY")
0.636
>>> observed_value("GKLGSSPQLRYY")
0.704

----------
System: Saccharomyces cerevisiae
assay.procedure: protein stability index of tFT-peptide fusion (C-terminal peptide) (PSI (0-1 scale)); higher = more stable (slower turnover)
settings: genetic background: das1 deletion; temperature: 30 C
endpoint.label: protein stability index

>>> observed_value("ININDLMVNRNH [YOR389W C-terminal 12 aa]")
0.701
>>> observed_value("CSLINSCAFFCL [YDR413C C-terminal 12 aa]")
0.704
>>> observed_value("MKEKLKHSRKYM [SHY1 C-terminal 12 aa]")
0.712
>>> observed_value("NFWNTGSAIFMQ [YHR069C-A C-terminal 12 aa]")
0.735
>>> observed_value("RSIRWFREAGGK [SKI8 C-terminal 12 aa]")
0.695
>>> observed_value("YRCEKISQVLVI [CTF13 C-terminal 12 aa]")
0.461
>>> observed_value("SPYLKHLDSRKQ [CTS2 C-terminal 12 aa]")
0.722
>>> observed_value("RRFDVYSDVNAH [NIT3 C-terminal 12 aa]")
0.71
>>> observed_value("HLQRCLSRGARR [SGF11 C-terminal 12 aa]")
0.698
>>> observed_value("SGKLASKKRDKK [MRPL36 C-terminal 12 aa]")
0.684
>>> observed_value("AAGKANKQFAKF [RPS11A C-terminal 12 aa]")
0.814
>>> observed_value("PVHLQTVGLVDC [PIR5 C-terminal 12 aa]")
0.623
